biological target: NLRP3 inflammasome (Homo sapiens); assay: NLRP3 inflammasome activation in THP1 macrophages (LPS priming, nigericin), IL-1β AlphaLISA; details: PMA-differentiated THP1, LPS 20 ng/ml 3 hrs, compound 1 hr, Nigericin 6.7 uM 3 hrs, supernatant
Quick list: IC50 per entry.

COc1cc(N[C@@H]2CCCN(C)C2)nnc1-c1ccc(C(F)(F)F)cc1 [compound 101] = > 1000 nM
Cc1ccc(-c2nnc(N[C@@H]3CCCN(C)C3)cc2C)cc1 [compound 11] = 10 to 50 nM
Cc1cc(-c2ccc(Cl)cc2)nnc1N[C@@H]1CCCN(C)C1 [compound 128] = 100 to 500 nM
Cc1cc(-c2ccc(Cl)cc2C(F)(F)F)nnc1N[C@@H]1CCCN(C)C1 [compound 170] = 10 to 50 nM
Cc1cc(N[C@@H]2CCN(C)C2)nnc1-c1ccc(F)cc1 [compound 183] = 100 to 500 nM

What value of IC50 has been recorded for this entry: CN1CCC[C@@H](Nc2ccc(-c3ccccc3)nn2)C1 [compound 84] > 1000 nM

What value of IC50 has been recorded for this entry: Cc1cc(-c2cc(C)c(N[C@@H]3CCCN(C)C3)nn2)ccc1F [compound 112] > 1000 nM

###

Quick list: IC50 per entry.
biological target: NLRP3 inflammasome (Homo sapiens, UniProt Q96P20); assay: NLRP3 inflammasome activation in THP1 macrophages (LPS priming, nigericin), IL-1β AlphaLISA; conditions: PMA-differentiated THP1, LPS 20 ng/ml 3 hrs, compound 1 hr, Nigericin 6.7 uM 3 hrs, supernatant
Sequence (Q96P20 whole entry): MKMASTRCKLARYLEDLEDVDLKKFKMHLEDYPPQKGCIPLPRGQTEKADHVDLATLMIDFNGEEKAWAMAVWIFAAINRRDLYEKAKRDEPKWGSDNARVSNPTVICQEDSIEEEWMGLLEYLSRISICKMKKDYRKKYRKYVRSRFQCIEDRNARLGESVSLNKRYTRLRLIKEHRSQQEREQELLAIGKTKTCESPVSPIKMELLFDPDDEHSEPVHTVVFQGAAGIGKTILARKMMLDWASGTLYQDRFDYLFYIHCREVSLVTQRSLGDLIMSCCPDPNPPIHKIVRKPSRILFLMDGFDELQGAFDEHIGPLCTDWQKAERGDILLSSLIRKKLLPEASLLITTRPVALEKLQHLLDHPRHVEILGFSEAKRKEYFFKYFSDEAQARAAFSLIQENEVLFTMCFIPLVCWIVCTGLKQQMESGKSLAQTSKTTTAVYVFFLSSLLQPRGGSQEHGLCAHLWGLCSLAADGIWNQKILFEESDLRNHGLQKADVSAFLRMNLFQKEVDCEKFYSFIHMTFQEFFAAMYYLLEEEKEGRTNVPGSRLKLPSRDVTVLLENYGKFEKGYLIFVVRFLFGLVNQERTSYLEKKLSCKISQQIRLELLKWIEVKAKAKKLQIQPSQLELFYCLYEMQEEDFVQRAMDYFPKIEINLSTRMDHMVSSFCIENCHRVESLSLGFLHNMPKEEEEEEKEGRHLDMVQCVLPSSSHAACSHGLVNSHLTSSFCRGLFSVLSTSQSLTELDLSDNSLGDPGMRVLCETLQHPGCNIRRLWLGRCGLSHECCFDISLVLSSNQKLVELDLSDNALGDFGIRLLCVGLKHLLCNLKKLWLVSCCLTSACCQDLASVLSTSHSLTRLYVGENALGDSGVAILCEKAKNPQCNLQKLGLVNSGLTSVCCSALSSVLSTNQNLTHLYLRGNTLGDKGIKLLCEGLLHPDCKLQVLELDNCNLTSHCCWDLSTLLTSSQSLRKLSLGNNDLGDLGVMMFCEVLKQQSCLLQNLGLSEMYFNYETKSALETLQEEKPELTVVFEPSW

Examples from the recorded data:
Cc1cc(O[C@@H]2CCCN(C)C2)nnc1-c1ccc(Cl)cc1 = 100 to 500 nM
Cc1c(-c2ccc(C(F)(F)F)cc2)nnc(N[C@@H]2CCCN(C)C2)c1O = 10 to 50 nM
Cc1cc(C(F)(F)F)cc(C)c1-c1ccc(N[C@@H]2CCCN(C)C2)nn1 = 500 to 1000 nM
Cc1cc(N[C@@H]2CCCN(C)C2)nnc1-c1ccc(F)c(C#N)c1 = > 1000 nM
CN1CCC[C@@H](Nc2nnc(-c3ccc(F)cc3)cc2C(F)(F)F)C1 = > 1000 nM
CN1CCC[C@@H](Nc2ccc(-c3ccc(C(F)(F)F)cc3)nn2)C1 = 100 to 500 nM
Cc1cc(-c2ccc(Cl)cc2C#N)nnc1N[C@@H]1CCCN(C)C1 = > 1000 nM
Cc1cccc(-c2cc(C)c(N[C@@H]3CCCN(C)C3)nn2)c1 = > 1000 nM
CN1CCC[C@@H](Nc2cc(C(F)(F)F)c(-c3ccc(C(F)(F)F)cc3)nn2)C1 = 10 to 50 nM
CCc1cc(N[C@@H]2CCCN(C)C2)nnc1-c1ccc(C(F)(F)F)cc1 = 10 to 50 nM

What value of IC50 has been recorded for this entry: COc1cc(C(F)(F)F)ccc1-c1nnc(N[C@@H]2CCCN(C)C2)cc1C 10 to 50 nM

What value of IC50 has been recorded for this entry: Cc1cc(-c2cc(C)c(F)c(C)c2)nnc1N[C@@H]1CCCN(C)C1 > 1000 nM

What value of IC50 has been recorded for this entry: Cc1cc(N[C@@H]2C[C@@H](F)CN(C(C)C)C2)nnc1-c1ccc(C(F)(F)F)cc1 100 to 500 nM

What value of IC50 has been recorded for this entry: Cc1cc(N[C@@H]2CCCN(C)C2)nnc1-c1ccccc1C#N > 1000 nM

What value of IC50 has been recorded for this entry: CCN1CCC[C@@H](Nc2nnc(-c3ccc(C(F)(F)F)cc3)cc2C)C1 100 to 500 nM

What value of IC50 has been recorded for this entry: Cc1cc(-c2cc(C)c(N[C@@H]3CCCN(C)C3)nn2)ccc1C(F)(F)F > 1000 nM

What value of IC50 has been recorded for this entry: Cc1cc(-c2nnc(N[C@@H]3CCCN(C)C3)cc2C)ccc1C(F)(F)F 500 to 1000 nM

What value of IC50 has been recorded for this entry: Cc1cc(-c2cccc(Cl)c2)nnc1N[C@@H]1CCCN(C)C1 > 1000 nM

What value of IC50 has been recorded for this entry: CCc1cccc(-c2cc(C)c(N[C@@H]3CCCN(C)C3)nn2)c1 > 1000 nM

What value of IC50 has been recorded for this entry: Cc1cc(N[C@@H]2CCCN(C)C2)nnc1-c1ccc(C#N)cc1 100 to 500 nM

What value of IC50 has been recorded for this entry: Cc1cc(Cl)ccc1-c1nnc(N(C)[C@@H]2CCCN(C)C2)cc1C 500 to 1000 nM

What value of IC50 has been recorded for this entry: Cc1cc(N[C@@H]2C[C@H](F)CN(C)C2)nnc1-c1ccc(F)cc1 500 to 1000 nM

What value of IC50 has been recorded for this entry: CN1CCC[C@@H](Nc2ccc(-c3ccc(Cl)cc3C(F)(F)F)nn2)C1 10 to 50 nM

What value of IC50 has been recorded for this entry: Cc1ccc(-c2cc(C(F)(F)F)c(N[C@@H]3CCCN(C)C3)nn2)cc1 > 1000 nM

What value of IC50 has been recorded for this entry: Cc1cc(N[C@@H]2CCCN(C)C2)nnc1-c1ccc(F)cc1F 100 to 500 nM

The measurements presented in this section are drawn from patent US20250074888A1.
